# reported CC50; entries follow
- System: FRHK-4 cell line
- assay-info: Cytotoxicity test on FRHK-4 cell line
- Type: cell-based
- measurement-context: hepatitis A virus HM 175 columns; host cells FRHK4
Returns: string containing the numeric result and its unit.

Recorded CC50, per entry:
[[record]]
compound = "Nc1nc(NS(=O)(=O)c2ccccc2)nc(-c2ccc(F)cc2)c1-c1nc2ccccc2s1 [14b]"
endpoint_value = "220 µg/mL"

[[record]]
compound = "Cc1ccc(S(=O)(=O)Nc2nc(N)c(-c3nc4ccccc4s3)c(-c3ccc(F)cc3)n2)cc1 [14g]"
endpoint_value = "230 µg/mL"

[[record]]
compound = "O=C(CNc1nc(NS(=O)(=O)c2ccccc2)ncc1-c1nc2ccccc2s1)c1ccc(Br)cc1"
endpoint_value = "240 µg/mL"


Record Nc1nc(NS(=O)(=O)c2ccccc2)ncc1-c1nc2ccccc2s1 , field CC50: 220 µg/mL

Record Cc1ccc(S(=O)(=O)Nc2nc(N)c(-c3nc4ccccc4s3)c(-c3ccc(Cl)cc3)n2)cc1 [14h] , field CC50: 200 µg/mL

Record O=C(CNc1nc(NS(=O)(=O)c2ccccc2)ncc1-c1nc2ccccc2s1)c1ccc(Cl)cc1 , field CC50: 230 µg/mL

Record Nc1nc(NS(=O)(=O)c2ccccc2)nc(-c2ccc(Cl)cc2)c1-c1nc2ccccc2s1 [14c] , field CC50: 230 µg/mL

----------
- Tested on: Vero cell line
- assay-info: Cytotoxicity test on Vero cell line
- Format: cell-based
- measurement-context: herpes simplex virus table; host cells Vero
reported-property: CC50 (µg/mL)
Please state the figure in µg/mL; there is no need to write the unit.

Recorded CC50, per entry:
[[record]]
molecule = "O=C(CNc1nc(NS(=O)(=O)c2ccccc2)ncc1-c1nc2ccccc2s1)c1ccc(Cl)cc1"
unit_abbreviation = "µg/mL"
endpoint_value = 240

[[record]]
molecule = "Nc1nc(NS(=O)(=O)c2ccccc2)nc(-c2ccc(F)cc2)c1-c1nc2ccccc2s1 [14b]"
unit_abbreviation = "µg/mL"
endpoint_value = 250

[[record]]
molecule = "Cc1ccc(S(=O)(=O)Nc2nc(N)c(-c3nc4ccccc4s3)c(-c3ccc(Cl)cc3)n2)cc1 [14h]"
unit_abbreviation = "µg/mL"
endpoint_value = 230

[[record]]
molecule = "Nc1nc2c(ncn2COCCO)c(=O)[nH]1 [acyclovir, Acyclovir, reference compound]"
unit_abbreviation = "µg/mL"
endpoint_value = 28

[[record]]
molecule = "Cc1ccc(S(=O)(=O)Nc2nc(N)c(-c3nc4ccccc4s3)c(-c3ccc(F)cc3)n2)cc1 [14g]"
unit_abbreviation = "µg/mL"
endpoint_value = 240


Record O=C(CNc1nc(NS(=O)(=O)c2ccccc2)ncc1-c1nc2ccccc2s1)c1ccc(Br)cc1 , field CC50: 270
